Cited source: ChEMBL document CHEMBL4689842

Reported Population Apoptotic (%) values are given for each entry in this list.
# Tested on: HEK-293T
# experiment_notes: Multiplex assay against HEK293T
# Format: toxicity, cell-based
# test_context: human, 48 h, 1 µM, compound concentration 1 uM, replicate 2
Number in %, nothing else.

Here is how some compounds turned out for Population Apoptotic (%).
- compound: "C=C1/C(=C\\C=C2/CCC[C@]3(C)[C@@H]([C@H](C)/C=C/[C@H](C)C(C)C)CC[C@@H]23)C[C@@H](O)C[C@@H]1O"
  experimental_system: "HEK-293T"
  Population Apoptotic (%): 9
- compound: "Cc1cc(C)c(S(=O)(=O)N(Cc2ccc(-c3cccc(S(C)(=O)=O)c3)cc2)Cc2ccc(C(F)(F)F)o2)c(C)c1"
  experimental_system: "HEK-293T"
  Population Apoptotic (%): 9
- compound: "O=C1NC(=O)C(c2cnc3ccccn23)=C1c1cn2c3c(cc(F)cc13)CN(C(=O)N1CCCCC1)CC2"
  experimental_system: "HEK-293T"
  Population Apoptotic (%): 29
- compound: "CCOC(=O)c1c(C)[nH]c2ccc3c(c12)CN1CCc2cc(OC)ccc2C1O3 (stereo not given)"
  experimental_system: "HEK-293T"
  Population Apoptotic (%): 36

In the following, a different compound is considered.
**Q:** Quick one: Population Apoptotic (%) of O=C(Cc1ccc(-c2ccc(OCCN3CCOCC3)cc2)cn1)NCc1ccccc1 ?
**A:** 40

====

# Test system: U2OS
# experiment_notes: Multiplex assay against U2OS
# Format: toxicity, cell-based
# test_context: human, 12 h, 1 µM, compound concentration 1 uM, replicate 1
observed_property: Total Cell Count

// known answers, use as guide
- compound: "COC(=N)c1nc2ccc3ncnc(Nc4ccc(OC)cc4F)c3c2s1"
  Total Cell Count: 162
- compound: "CCCn1c(=O)c2[nH]c(-c3cnn(Cc4cccc(C(F)(F)F)c4)c3)nc2n(CC)c1=O [GS 6201]"
  Total Cell Count: 1120
- compound: "CCNc1cc(N[C@H]2CC[C@H](O)CC2)nc(Nc2ccc3c(ccn3Cc3ccccc3)c2)n1"
  Total Cell Count: 129
- compound: "CCc1cccc(CC)c1NC(=O)c1nn(C)c2c1CCc1cnc(Nc3ccc(N4CCN(C)CC4)cc3OC)nc1-2"
  Total Cell Count: 159
- compound: "CN1CCN(C(=O)C(C)(C)c2ccc(C(=O)Nc3cn4cc(-c5cc(C(C)(C)C)cc(C(C)(C)C)c5)ccc4n3)cc2)CC1 [T3-CLK-N]"
  Total Cell Count: 162
- compound: "CN1CCC(=C2c3ccccc3CC(=O)c3sccc32)CC1.O=C(O)/C=C/C(=O)O [KETOTIFEN FUMARATE]"
  Total Cell Count: 178
- compound: "CCOC(=O)c1c(C)[nH]c2ccc3c(c12)CN1CCc2cc(OC)ccc2C1O3 (stereo not given)"
  Total Cell Count: 123
- compound: "O=C(Nc1ccc(Cl)cc1)Nc1cccc(-c2cccc(N3CCCC3)n2)c1"
  Total Cell Count: 158
- compound: "Cl.O=c1c2cccn2c2ccccc2n1CCCN1CCC(c2ccc(Cl)cc2)CC1"
  Total Cell Count: 233

Now for a further compound.
**Q:** What Total Cell Count value was documented for this compound, CCCS(=O)(=O)c1nc(NC2CC2)cc(-c2ccc3c(ccn3C3CC(C)(C)NC(C)(C)C3)c2)n1 ?
**A:** 588

====

# Tested on: U2OS
# experiment_notes: Multiplex assay against U2OS
# Type: toxicity, cell-based
# test_context: human, 48 h, 10 µM, compound concentration 10 uM, replicate 1
The following molecules are shown together with reported Population Mitochondria Different-Phenotype (%) values.
Numbers only here, please. The scale is %.

- molecule: "CNc1cc(Oc2cc(C(=O)Nc3cc(N4CCN(C)CC4)cc(C(F)(F)F)c3)ccc2C)ncn1"
  experimental_system: "U2OS"
  unit_abbrev: "%"
  number: 100
- molecule: "CN(C)C(=O)C(CCN1CCC(O)(c2ccc(Cl)cc2)CC1)(c1ccccc1)c1ccccc1.Cl [LOPERAMIDE HYDROCHLORIDE]"
  experimental_system: "U2OS"
  unit_abbrev: "%"
  number: 100
- molecule: "Cl.O=c1c2cccn2c2ccccc2n1CCCN1CCC(c2ccc(Cl)cc2)CC1"
  experimental_system: "U2OS"
  unit_abbrev: "%"
  number: 100
- molecule: "O=C(Nc1ccc(-n2nc(-c3cccnc3)cc2C(F)(F)F)cn1)c1ccc(-c2ccccc2)c(F)c1"
  experimental_system: "U2OS"
  unit_abbrev: "%"
  number: 13
- molecule: "Cc1ccc(C(=O)Nc2cccc(C(F)(F)F)c2)cc1Nc1nc(-c2cccnc2)nc2c1cnn2C"
  experimental_system: "U2OS"
  unit_abbrev: "%"
  number: 100

**Q:** Given Cl.Oc1ccc2c3c1O[C@H]1c4[nH]c5c(c4C[C@@]4(O)[C@@H](C2)N(CC2CC2)CC[C@]314)C[C@@]1(O)[C@H]2Cc3ccc(O)c4c3[C@@]1(CCN2CC1CC1)[C@H]5O4 , state its recorded Population Mitochondria Different-Phenotype (%).
**A:** 9

**Q:** // next record CN1CCN(C(=O)C(C)(C)c2ccc(C(=O)Nc3cn4cc(-c5ccncc5)ccc4n3)cc2)CC1
**A:** 87

====

# Tested on: HEK-293T
# experiment_notes: Multiplex assay against HEK293T
# Format: toxicity, cell-based
# test_context: human, 48 h, 1 µM, compound concentration 1 uM, replicate 2
So basically: Population Fragmented Nuclei (%) at 6% or higher? That is rule met. Lower than 6%? That is rule not met.

Take a look at these entries with their results.
- molecule: "O=C(Cc1ccc(-c2ccc(OCCN3CCOCC3)cc2)cn1)NCc1ccccc1 [TIRBANIBULIN]"
  assigned_category: "rule met"
- molecule: "O=C(Nc1ccc(Cl)cc1)Nc1cccc(-c2cccc(N3CCCC3)n2)c1"
  assigned_category: "rule not met"
- molecule: "Cc1cn(-c2cc(NC(=O)c3ccc(C)c(Nc4nccc(-c5cccnc5)n4)c3)cc(C(F)(F)F)c2)cn1 [NILOTINIB]"
  assigned_category: "rule not met"

**Q:** Check the entry Cl.O=c1c2cccn2c2ccccc2n1CCCN1CCC(c2ccc(Cl)cc2)CC1 : does Population Fragmented Nuclei (%) equal or exceed 6%?
**A:** rule met

**Q:** Now consider C=C1/C(=C\C=C2/CCC[C@]3(C)[C@@H]([C@H](C)/C=C/[C@H](C)C(C)C)CC[C@@H]23)C[C@@H](O)C[C@@H]1O [DOXERCALCIFEROL] and answer again.
**A:** rule met

====

# System: Fibroblast
# experiment_notes: Multiplex assay against human fibroblast
# Assay type: toxicity, cell-based
# test_context: 24 h, 1 µM, compound concentration 1 uM, replicate 2
Classify: yes when Total Cell Count is strictly less than 80; no when Total Cell Count is not.

# example entries with known answers
- compound: "CCn1cc(-c2ccnc3[nH]c(-c4cccc(CN(C)C)c4)cc23)c(-c2ccc(NC(=O)N(C)C)cc2)n1"
  assigned_category: "yes"
- compound: "CCCS(=O)(=O)c1nc(NC2CC2)cc(-c2ccc3c(ccn3C3CC(C)(C)NC(C)(C)C3)c2)n1"
  assigned_category: "no"
- compound: "O=C(Nc1ccc(-n2nc(-c3cccnc3)cc2C(F)(F)F)cn1)c1ccc(-c2ccccc2)c(F)c1"
  assigned_category: "no"
- compound: "CCN1CCN(c2ccc(Nc3cc(N(C)C(=O)Nc4c(Cl)c(OC)cc(OC)c4Cl)ncn3)cc2)CC1"
  assigned_category: "no"
- compound: "CN1CCC(=C2c3ccccc3CC(=O)c3sccc32)CC1.O=C(O)/C=C/C(=O)O [KETOTIFEN FUMARATE]"
  assigned_category: "yes"
- compound: "O=C1N/C(=N/c2ccccc2F)S/C1=C\\c1ccc(C(=O)O)cc1"
  assigned_category: "yes"
- compound: "CCN1CCN(Cc2ccc(Nc3ncc(F)c(-c4cc(F)c5nc(C)n(C(C)C)c5c4)n3)nc2)CC1.CS(=O)(=O)O"
  assigned_category: "yes"
- compound: "CCc1cccc(CC)c1NC(=O)c1nn(C)c2c1CCc1cnc(Nc3ccc(C(=O)NC4CCN(C)CC4)cc3OC(F)(F)F)nc1-2"
  assigned_category: "yes"
- compound: "CCNc1cc(N[C@H]2CC[C@H](O)CC2)nc(Nc2ccc3c(ccn3Cc3ccccc3)c2)n1"
  assigned_category: "no"
- compound: "COc1cccc2cc(-c3nc([C@H]4CC[C@H](C(=O)O)CC4)n4ncnc(N)c34)[nH]c12"
  assigned_category: "no"

**Q:** Bench note: check whether O=C(Nc1ccc(Cl)cc1)Nc1cccc(-c2cccc(N3CCCC3)n2)c1 shows Total Cell Count below 80
**A:** no

**Q:** Consider next the compound CCOc1cc(C(=O)N2CCC(N3CCN(C)CC3)CC2)ccc1Nc1ncc2c(n1)N(C1CCCC1)c1ccccc1C(=O)N2C in the same way.
**A:** yes
